Recorded values, source patent US20120237528A1.

Target: T1, recombinant extracellular domain (ECD) of human TF, amino acid 1-219 of the mature chain, C-terminal His6-tag (human, UniProt P13726 33-251)
T1 construct: expressed in a mammalian system; used for ELISA and Biacore; biotinylated by NHS-ester for the Fab ELISA; also called His6-TF-ECD1-219; HumanTF1-219
Test: Biacore

# binder, koff, s⁻¹
records = [
    ("M1610 (antibody, V domains shown, complete MAb; FR4 is its own entry; also called H115/L3) VH: EVQLVQSGAEVKKPGESLRISCKGSGYTFAPYWIEWVRQMPGKGLEWMGDIIPGTGYTTYSPSFQGHVTISADKSISTAYLQWSSLKASDTAMYYCARSGYYGNSGFAYWGQGTLVTVSS VL: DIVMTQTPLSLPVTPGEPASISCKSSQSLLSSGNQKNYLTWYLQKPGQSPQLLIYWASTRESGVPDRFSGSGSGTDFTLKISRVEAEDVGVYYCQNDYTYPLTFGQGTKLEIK", 0.0001),
    ("M1607 (antibody, V domains shown, complete MAb; FR4 is its own entry; also called H189/L3; TF7M1607) VH: EVQLVQSGAEVKKPGESLRISCKGSGFTFITYWIAWVRQMPGKGLEWMGDILPASSSTNYSPSFQGHVTISADKSISTAYLQWSSLKASDTAMYYCARSGYYGNSGFAYWGQGTLVTVSS VL: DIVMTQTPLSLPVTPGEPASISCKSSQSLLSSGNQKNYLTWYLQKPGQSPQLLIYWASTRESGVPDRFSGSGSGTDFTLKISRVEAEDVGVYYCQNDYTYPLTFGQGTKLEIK", "6e-05"),
    ("M1590 (antibody, V domains shown, complete MAb; FR4 is its own entry; also called H117/L3) VH: EVQLVQSGAEVKKPGESLRISCKGSGYTFLPYWIEWVRQMPGKGLEWMGDIIPGTGFTNYSPSFQGHVTISADKSISTAYLQWSSLKASDTAMYYCARSGYYGNSGFAYWGQGTLVTVSS VL: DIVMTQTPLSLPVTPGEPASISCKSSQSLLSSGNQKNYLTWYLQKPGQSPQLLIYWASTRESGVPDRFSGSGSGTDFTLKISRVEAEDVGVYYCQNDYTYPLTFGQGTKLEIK", 0.000109),
    ("M1598 (antibody, V domains shown, complete MAb; FR4 is its own entry; also called H137/L3) VH: EVQLVQSGAEVKKPGESLRISCKGSGYTFTPYWIEWVRQMPGKGLEWMGDILPGTGYTVYSPSFQGHVTISADKSISTAYLQWSSLKASDTAMYYCARSGYYGNSGFAYWGQGTLVTVSS VL: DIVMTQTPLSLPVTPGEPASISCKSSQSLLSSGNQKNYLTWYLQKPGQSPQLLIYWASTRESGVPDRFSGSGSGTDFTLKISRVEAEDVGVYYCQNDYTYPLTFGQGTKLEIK", "6.3e-05"),
    ("M1595 (antibody, V domains shown, complete MAb; FR4 is its own entry; also called H160/L3) VH: EVQLVQSGAEVKKPGESLRISCKGSGYTFYPYWIEWVRQMPGKGLEWMGDILPGTGFTNYSPSFQGHVTISADKSISTAYLQWSSLKASDTAMYYCARSGYYGNSGFAYWGQGTLVTVSS VL: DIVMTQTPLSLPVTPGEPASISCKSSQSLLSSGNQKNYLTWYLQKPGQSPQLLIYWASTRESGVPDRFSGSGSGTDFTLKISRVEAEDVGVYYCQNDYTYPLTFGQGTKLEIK", "6.8e-05"),
]
